Items are presented alongside their recorded RP-LC retention time.
- EXPERIMENT_NOTES: gradient 5% acetonitrile 3 min, to 50% in 2 min, to 85% in 15 min, held 3 min, 100 µL/min
- STATED_CONDITIONS: column: Zorbax Extend-C18 2.1 x 50 mm; eluents: water / acetonitrile, 0.1% formic acid
PROPERTY_LABEL: RP-LC retention time (s)

COMPOUND | PROPERTY_LABEL | READING_UNIT | OBSERVED_MEASUREMENT
COc1ccc(C(=O)N2C[C@@H]3C[C@H](NS(=O)(=O)c4ccccc4)[C@H]2C3)cn1 | RP-LC retention time | s | 695
Cc1oc(-c2[nH]ncc2C(=O)N(C)C)cc1S(=O)(=O)Nc1ccccc1F | RP-LC retention time | s | 658
Cc1ccc(S(=O)(=O)N2CCC(CCC(=O)NC3CCS(=O)(=O)C3)CC2)cc1 (stereo not drawn) | RP-LC retention time | s | 740
